Test system: Saccharomyces cerevisiae
Experiment: protein stability index of tFT-peptide fusion (C-terminal peptide) (PSI (0-1 scale)); higher = more stable (slower turnover)
Conditions: genetic background: wild type; temperature: 37 C
Reported protein stability index is given for each of the following sequences.
Respond using a number only.

A selection of reference data follows.
| SEQUENCE | protein stability index |
| --- | --- |
| DLRGLGRFRISH | 0.677 |
| WKNIHGVFVFVM | 0.445 |
| FCFVRGLLFLFF | 0.506 |
| TFRVLFSVALLV | 0.232 |
| EKKNQTAYNKTV | 0.365 |
| VFFFNALFCFFC | 0.356 |
| GGRSLYAILCAV | 0.261 |
| MGVTVRVEGIRA | 0.537 |

Enquiry: I have this sequence here, RTMLSNRIKSFI , and I need its recorded protein stability index.
Return: 0.519

Enquiry: Same again, this time with FITFLVFVGFFL
Return: 0.448

Enquiry: Try GWVVVVCGVCCG next.
Return: 0.28

Enquiry: Can you handle VLRACCDWGFLV next?
Return: 0.163

Enquiry: Same question, PRPETCHAVAVR this time
Return: 0.58

====

System: Saccharomyces cerevisiae
Test: protein stability index of tFT-peptide fusion (C-terminal peptide) (PSI (0-1 scale)); higher = more stable (slower turnover)
Details: genetic background: wild type; temperature: 30 C
protein stability index values by entry
Respond using a number only.

Example cases with answers are listed next.
| SEQUENCE | protein stability index |
| --- | --- |
| DVHDDVESDDEI [ALF1 C-terminal 12 aa] | 0.701 |
| WLSKSGSSAALP [TOS1 C-terminal 12 aa] | 0.685 |
| ARMLARECRRHM [CDC23 C-terminal 12 aa] | 0.698 |

Now consider a different sequence.
Enquiry: Fill in: protein stability index of IADHLVGRKRVD [PFK2 C-terminal 12 aa] is ___
Return: 0.712

====

System: Saccharomyces cerevisiae
Assay: protein stability index of tFT-peptide fusion (C-terminal peptide) (PSI (0-1 scale)); higher = more stable (slower turnover)
Settings: genetic background: wild type; temperature: 30 C
Readings of protein stability index for the listed sequences
Keep it simple and answer with nothing but the number.

Some solved cases for reference:
| SEQUENCE | TARGET_SYSTEM | protein stability index |
| --- | --- | --- |
| GEASTGNRLSFK [BNI1 C-terminal 12 aa] | Saccharomyces cerevisiae | 0.72 |
| SRIQNASASGEI [TIM13 C-terminal 12 aa] | Saccharomyces cerevisiae | 0.715 |
| NSIDIGSRLSLM [PEX1 C-terminal 12 aa] | Saccharomyces cerevisiae | 0.689 |
| KALQKAMGSVQF [YEL1 C-terminal 12 aa] | Saccharomyces cerevisiae | 0.687 |
| KEFKQFEFHNRR [RRP36 C-terminal 12 aa] | Saccharomyces cerevisiae | 0.681 |
| DLAERLAETEIK [RNA1 C-terminal 12 aa] | Saccharomyces cerevisiae | 0.692 |
| FAAVSFVLGTGI [NCW1 C-terminal 12 aa] | Saccharomyces cerevisiae | 0.709 |
| SNSNQHFGNVTF [IME2 C-terminal 12 aa] | Saccharomyces cerevisiae | 0.683 |
| KTVSPNWEVKEL [CYM1 C-terminal 12 aa] | Saccharomyces cerevisiae | 0.702 |
| PADIATDHDITM [TAF8 C-terminal 12 aa] | Saccharomyces cerevisiae | 0.685 |

Enquiry: # lookup: protein stability index of GGSRGGFRGGRR [GAR1 C-terminal 12 aa]
Return: 0.707

Enquiry: HCTVVLPSILKR [YHR217C C-terminal 12 aa] ?
Return: 0.705

These measurements were taken from the supplement of paper PMC10724198.
